Each record here notes measured Relative rate (%) ST3N.
# Test system: ST3N
# ASSAY PROTOCOL: Acceptor specificity of ST3N in COS-1 media
# MEASUREMENT CONTEXT: acceptor 2.0 mM
Quick reminder: number only, in %, skip the unit.

Check out these entries, answers already filled in.
| COMPOUND | OBSERVED |
| --- | --- |
| CC(=O)N[C@H]1[C@H](O[C@H]2[C@@H](O)[C@@H](CO)O[C@@H](O[C@H]3[C@H](O)[C@@H](O)C(O)O[C@@H]3CO)[C@@H]2O)O[C@H](CO)[C@@H](O[C@@H]2O[C@H](CO)[C@H](O)[C@H](O)[C@H]2O)[C@@H]1O (stereo partly shown) | 18 |
| CC(=O)N[C@H]1[C@H](O[C@H]2[C@@H](O)[C@@H](CO)O[C@@H](O[C@H]3[C@H](O)[C@@H](O)C(O)O[C@@H]3CO)[C@@H]2O)O[C@H](CO)[C@@H](O[C@@H]2O[C@@H](C)[C@@H](O)[C@@H](O)[C@@H]2O)[C@@H]1O[C@@H]1O[C@H](CO)[C@H](O)[C@H](O)[C@H]1O (stereo partly shown) | 0 |
| CC(=O)N[C@H]1[C@H](O[C@H]2[C@@H](O)[C@@H](CO)O[C@@H](O[C@H]3[C@H](O)[C@@H](O)C(O)O[C@@H]3CO)[C@@H]2O)O[C@H](CO)[C@@H](O)[C@@H]1O[C@@H]1O[C@H](CO)[C@H](O)[C@H](O)[C@H]1O (stereo partly shown) | 100 |

Read the next record carefully.
Qu. Which Relative rate (%) ST3N value is on record for CC(=O)N[C@H]1[C@H](O[C@H]2[C@@H](O)[C@@H](CO)O[C@@H](O[C@H]3[C@H](O)[C@@H](O)C(O)O[C@@H]3CO)[C@@H]2O)O[C@H](CO)[C@@H](O[C@@H]2O[C@H](CO)[C@H](O)[C@H](O)[C@H]2O)[C@@H]1O[C@@H]1O[C@@H](C)[C@@H](O)[C@@H](O)[C@@H]1O (stereo partly shown) ?
Ans. 0

====

# SYSTEM TESTED: ST3O (Sus scrofa)
# Sequence (Q02745 28-343 limits assumed): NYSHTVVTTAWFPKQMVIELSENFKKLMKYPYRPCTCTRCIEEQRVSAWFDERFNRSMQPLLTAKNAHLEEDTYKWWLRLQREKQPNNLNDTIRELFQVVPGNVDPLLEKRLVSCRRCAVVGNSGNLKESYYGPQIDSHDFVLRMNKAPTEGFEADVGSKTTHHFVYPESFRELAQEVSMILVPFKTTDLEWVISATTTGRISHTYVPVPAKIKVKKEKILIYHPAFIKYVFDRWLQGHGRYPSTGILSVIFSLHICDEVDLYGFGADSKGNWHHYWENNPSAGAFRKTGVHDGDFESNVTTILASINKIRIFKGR
# ASSAY PROTOCOL: Acceptor specificity of ST3O in COS-1 media
# MEASUREMENT CONTEXT: acceptor 2.0 mM
ASSAY METRIC: Relative rate (%) ST3O
Just the number in %, nothing appended.

| COMPOUND | UNIT NAME | Relative rate (%) ST3O |
| --- | --- | --- |
| CC(=O)N[C@H]1[C@H](O[C@H]2[C@@H](O)[C@@H](CO)O[C@@H](O[C@H]3[C@H](O)[C@@H](O)C(O)O[C@@H]3CO)[C@@H]2O)O[C@H](CO)[C@@H](O[C@@H]2O[C@H](CO)[C@H](O)[C@H](O)[C@H]2O)[C@@H]1O (stereo partly drawn) | % | 0.5 |

Qu. Entry CC(=O)N[C@H]1[C@H](O[C@H]2[C@@H](O)[C@@H](CO)O[C@@H](O[C@H]3[C@H](O)[C@@H](O)C(O)O[C@@H]3CO)[C@@H]2O)O[C@H](CO)[C@@H](O[C@@H]2O[C@H](CO)[C@H](O)[C@H](O)[C@H]2O)[C@@H]1O[C@@H]1O[C@@H](C)[C@@H](O)[C@@H](O)[C@@H]1O (stereo partly drawn) : reported Relative rate (%) ST3O = ?
Ans. 0

Qu. Now the same for CC(=O)N[C@H]1[C@H](O[C@H]2[C@@H](O)[C@@H](CO)O[C@@H](O[C@H]3[C@H](O)[C@@H](O)C(O)O[C@@H]3CO)[C@@H]2O)O[C@H](CO)[C@@H](O[C@@H]2O[C@@H](C)[C@@H](O)[C@@H](O)[C@@H]2O)[C@@H]1O[C@@H]1O[C@H](CO)[C@H](O)[C@H](O)[C@H]1O (stereo partly drawn)
Ans. 0
